Test system: SF-295 CNS
Test: NCI-60 one-dose screen, 48 h (100 = growth as untreated, 0 = no growth, -100 = all killed)
Conditions: 10 µM unless noted
Protocol: Cells are grown in 96 well plates and exposed to the test compound for 48 hours. Compounds are tested at a single concentration, which is 10^-5 M for most compounds. The reported endpoint is percent growth (GI% or GIPRCNT), where numbers from 0 - 100% represent growth inhibition, and numbers from -100% - 0 represent cell death. For example, a value of 40 represents 60% growth inhibition. A value of 0 means no net growth occurred over the course of the experiment. […]
About 83,000 compounds went through this panel and 20% of them were active in at least one assay; those are over-represented in the sample as a whole. Active and inactive are the calls of the source. The calls were made as follows: active = growth percent below 10; inactive = the rest.
reported_endpoint: growth

Known growth results, listed for orientation:
compound: CNCCNc1nc2ccccc2c2c(=O)c3cc(F)ccc3sc12
reported_endpoint: growth
reading: 95.2% (inactive)

compound: COC(=O)[C@@H]1CCCN1C(=O)[C@H]1CCCN1C(=O)[C@@H](Cc1c[nH]c2ccccc12)NC(=S)Nc1cc(C(F)(F)F)cc(C(F)(F)F)c1
reported_endpoint: growth
reading: -52.2% (active)

compound: O=C(/C=C/c1ccc(C(F)(F)F)cc1)c1ccc(Nc2nc(NCCO)nc(Nc3ccc(Cl)cc3)n2)cc1
reported_endpoint: growth
reading: 79.6% (inactive)

compound: O=c1cc(NC2CCN(CCCc3ccccc3)CC2)c2cc(Cl)ccc2o1
reported_endpoint: growth
reading: -44.1% (active)

compound: NNC(=O)CNC(=O)Nc1n[nH]c(=S)s1
reported_endpoint: growth
reading: 94% (inactive)

Hi team, please reply with growth for each item in this list.
1. O=C(N/N=C/c1ccccc1Cl)C(=O)Nc1cccc(C(F)(F)F)c1
2. N#Cc1c(N)nc2c(c1N)C(c1ccc(F)cc1)c1ccc(N)cc1O2 (centres undefined)
3. COc1ccc(-c2c(-c3ccc(OC)c(O)c3)cnc3ncnn23)cc1
4. CC[C@@H](C)[C@H](NC(=O)Cn1cc(CNC(=O)[C@@H](NC(=O)OCc2ccccc2)C(C)C)nn1)C(=O)O

stdout:
1. 87.7% (inactive)
2. 83.1% (inactive)
3. 102% (inactive)
4. 94.1% (inactive)

###

System: SF-268 CNS
Assay: NCI-60 one-dose screen, 48 h (100 = growth as untreated, 0 = no growth, -100 = all killed)
Conditions: 10 µM unless noted
Experimental: Cells are grown in 96 well plates and exposed to the test compound for 48 hours. Compounds are tested at a single concentration, which is 10^-5 M for most compounds. The reported endpoint is percent growth (GI% or GIPRCNT), where numbers from 0 - 100% represent growth inhibition, and numbers from -100% - 0 represent cell death. For example, a value of 40 represents 60% growth inhibition. A value of 0 means no net growth occurred over the course of the experiment. […]
About 83,000 compounds went through this panel and 20% of them were active in at least one assay; those are over-represented in the sample as a whole.
Class True: growth at least 60%. Class False: growth below 60%.

A selection of reference data follows.
compound: CCCCC(O)(c1ccc(Cl)cc1)C(CN1CCOCC1)c1ccc(Cl)cc1 (stereo not given)
class_assignment: False
--
compound: COc1ccc2[nH]c(O)c(N=NC(=O)c3oc4ccccc4c3C)c2c1
class_assignment: False
--
compound: Clc1ccc(Nc2scc3[n+]2CCC3)cc1
class_assignment: True
--
compound: COC(=O)c1c2c(c(C)[n+]([O-])c1C)C(=O)C=C(NCc1ccc(F)c(F)c1)C2=O
class_assignment: False

stdin: Confirm if growth reported for the compound COc1c(B(O)O)cccc1-c1nc2ccc3[nH]ncc3c2c2c1C1CCC2C1 (stereo not given) is 60% or above.
stdout: True
